This collection of values is drawn from ChEMBL document CHEMBL4421721.

Assay: Ring stabilizer activity at full-length native sheep brain dynamin 1 assessed as stimulation of GTPase activity in absence of PS liposomes using 200 nM full-length dynamin 1
Set-up: species or system Ovis aries
Conditions: read-out: EC50
pEC50 values, listed per item
# pEC50: negative log10 of molar concentration; output just the value

>>> reportedvalue("N=c1oc2cc(O)c(O)cc2cc1C(=O)NCCNC(=O)c1cc2cc(O)c(O)cc2oc1=N")
4.51

Switching to the query record.
[in] Entry N=c1oc2cc(O)ccc2cc1C(=O)NCCCNC(=O)c1cc2ccc(O)cc2oc1=N has what pEC50?
[out] 4.40

---

Test: Inhibition of helical full-length native sheep brain dynamin 1 assessed as reduction in PS liposomes-induced GTPase activity
Set-up: species or system Ovis aries
assayMetric: pIC50
Keep in mind that pIC50 stands for -log10 of concentration in molar terms.

[in] Which pIC50 is listed for N#C/C(=C\c1cc(O)c(O)c(O)c1)C(=O)NCCCNC(=O)/C(C#N)=C/c1cc(O)c(O)c(O)c1 ?
[out] 6.30

---

Some compounds, each annotated with its measured EC50.
Assay: Ring stabilizer activity at full-length native sheep brain dynamin 1 assessed as stimulation of GTPase activity in absence of PS liposomes
Design: species or system Ovis aries
Value expressed in nM; do not type the unit.

>>> reportedvalue("N=c1oc2cc(O)c(O)cc2cc1C(=O)NCCCNC(=O)c1cc2cc(O)c(O)cc2oc1=N")
4000

Consider now this further compound.
[in] Quick one: EC50 for N=c1oc2c(O)c(O)ccc2cc1C(=O)NCCCNC(=O)c1cc2ccc(O)c(O)c2oc1=N ?
[out] 1000
